study target: T1, recombinant human Tau monomer, 2N4R isoform (amino acids 2-441) (human, UniProt P10636-8 2-441)
T1 construct: range 2-441; N-terminal His-tag removed with TEV protease; also called monomeric Tau
T1 sequence (P10636 other isoform, or with tags, fused parts or gaps limits assumed): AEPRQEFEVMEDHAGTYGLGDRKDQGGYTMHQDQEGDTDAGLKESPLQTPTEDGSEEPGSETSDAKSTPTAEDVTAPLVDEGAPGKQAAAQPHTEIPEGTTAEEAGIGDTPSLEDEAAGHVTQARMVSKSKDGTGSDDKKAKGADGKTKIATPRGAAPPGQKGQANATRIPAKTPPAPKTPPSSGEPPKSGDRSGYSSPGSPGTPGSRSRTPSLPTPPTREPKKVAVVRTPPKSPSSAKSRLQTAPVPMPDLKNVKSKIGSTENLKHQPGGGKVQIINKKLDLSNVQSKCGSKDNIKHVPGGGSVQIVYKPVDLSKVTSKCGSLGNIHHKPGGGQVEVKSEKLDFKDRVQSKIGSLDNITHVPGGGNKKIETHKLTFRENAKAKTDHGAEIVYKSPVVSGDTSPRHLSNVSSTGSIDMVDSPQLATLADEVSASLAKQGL
method summary: SPR; Normalized Rmax post-stress (2 weeks 40 C) / pre-stress
Parameter threshold = 90%. Response is true when Stability Index meets or exceeds it, else false.

Use the examples below as a reference point.
binder	class assignment
hu37D3.v28.51 (antibody, V domains shown) VH: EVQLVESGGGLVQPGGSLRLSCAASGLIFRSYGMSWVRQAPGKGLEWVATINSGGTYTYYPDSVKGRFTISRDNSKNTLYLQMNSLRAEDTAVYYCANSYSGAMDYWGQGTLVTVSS VL: EDVLTQTPLSLPVTPGQPASISCRSSQSIVHSHGNTYFEWYLQKPGQSPQLLIYKVSNRFSGVPDRFSGSGSGTDFTLKISRVEAEDVGVYYCFQGSLVPWTFGQGTKVEIK	false
hu37D3.v29.10 (antibody, V domains shown) VH: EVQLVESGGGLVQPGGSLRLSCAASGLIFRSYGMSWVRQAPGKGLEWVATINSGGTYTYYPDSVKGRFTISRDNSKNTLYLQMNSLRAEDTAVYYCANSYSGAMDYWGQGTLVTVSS VL: EDVLTQTPLSLPVTPGQPASISCRSSQSIVHSNAETYFEWYLQKPGQSPQLLIYKVSNRFSGVPDRFSGSGSGTDFTLKISRVEAEDVGVYYCFQGSLVPWTFGQGTKVEIK	true
hu37D3.v28.B6 (antibody, V domains shown) VH: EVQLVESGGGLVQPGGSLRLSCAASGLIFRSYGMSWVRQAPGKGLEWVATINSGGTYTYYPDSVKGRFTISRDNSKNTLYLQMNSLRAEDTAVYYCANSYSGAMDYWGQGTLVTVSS VL: DDVLTQTPLSLPVTPGQPASISCRSSQSIVHSDGNTRFEWYLQKPGQSPQLLIYKVSNRFSGVPDRFSGSGSGTDFTLKISRVEAEDVGVYYCFQGSLVPWTFGQGTKVEIK	false

Prompt: Is Stability Index at least 90%? Consider hu37D3.v28.D1 (antibody, V domains shown) VH: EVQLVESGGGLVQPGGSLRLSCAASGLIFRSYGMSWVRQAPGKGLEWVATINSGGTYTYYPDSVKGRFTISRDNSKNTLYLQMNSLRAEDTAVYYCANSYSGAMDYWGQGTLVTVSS VL: DDVLTQTPLSLPVTPGQPASISCRSSQSIVHANGNTYFEWYLQKPGQSPQLLIYKVSNRFSGVPDRFSGSGSGTDFTLKISRVEAEDVGVYYCFQGSLVPWTFGQGTKVEIK
Completion: false

Prompt: Is Stability Index at least 90%? Consider hu37D3-H9.v30.11 (antibody, V domains shown) VH: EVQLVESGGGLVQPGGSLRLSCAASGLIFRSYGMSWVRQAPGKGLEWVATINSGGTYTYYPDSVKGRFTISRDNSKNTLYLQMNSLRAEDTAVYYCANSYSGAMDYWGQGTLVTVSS VL: DDVLTQTPLSLPVTPGQPASISCRSSQSIVHSRGNTYFEWYLQKPGQSPQLLIYKVSNRFSGVPDRFSGSGSGTDFTLKISRVEAEDVGVYYCFQGSLVPWTFGQGTKVEIK
Completion: false

Prompt: Is Stability Index at least 90%? Consider hu37D3.v28.B3 (antibody, V domains shown) VH: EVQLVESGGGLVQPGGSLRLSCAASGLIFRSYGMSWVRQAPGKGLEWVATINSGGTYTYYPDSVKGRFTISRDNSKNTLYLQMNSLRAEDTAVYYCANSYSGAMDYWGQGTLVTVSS VL: DDVLTQTPLSLPVTPGQPASISCRSSQSIVHSQGNTWFEWYLQKPGQSPQLLIYKVSNRFSGVPDRFSGSGSGTDFTLKISRVEAEDVGVYYCFQGSLVPWTFGQGTKVEIK
Completion: true

Prompt: Is Stability Index at least 90%? Consider hu37D3-H9.v31.7 (antibody, V domains shown) VH: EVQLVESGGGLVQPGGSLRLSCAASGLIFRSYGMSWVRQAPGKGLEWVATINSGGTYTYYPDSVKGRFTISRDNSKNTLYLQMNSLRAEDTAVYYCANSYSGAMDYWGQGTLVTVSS VL: DDVLTQTPLSLPVTPGQPASISCRSSQSIVHSNARTYFEWYLQKPGQSPQLLIYKVSNRFSGVPDRFSGSGSGTDFTLKISRVEAEDVGVYYCFQGSLVPWTFGQGTKVEIK
Completion: false

Prompt: Is Stability Index at least 90%? Consider hu37D3.v29.12 (antibody, V domains shown) VH: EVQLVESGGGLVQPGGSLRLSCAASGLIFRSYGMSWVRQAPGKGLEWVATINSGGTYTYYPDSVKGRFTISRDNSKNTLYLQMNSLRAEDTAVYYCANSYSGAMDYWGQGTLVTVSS VL: EDVLTQTPLSLPVTPGQPASISCRSSQSIVHSNAHTYFEWYLQKPGQSPQLLIYKVSNRFSGVPDRFSGSGSGTDFTLKISRVEAEDVGVYYCFQGSLVPWTFGQGTKVEIK
Completion: false
